- Test system: primary CLL cells from patient-derived blood
- procedure_text: Cell proliferation and viability assay for B-cell CLL patient cells (ex vivo co-culture with CD154-expressing fibroblasts)
- Type: cell-based, human
- condition_label: Homo sapiens, CLL cell, Pt8; ex vivo CLL patient cells; 0.001 to 1 μM; viable cells normalized to DMSO; read-out: IC50
- Experimental: The following are examples of cell-based assays that can be used to determine the anti-proliferative activity and apoptosis effect of compounds described herein using exemplary CLL patient cells. The effect of Compound 1 on the viability and apoptosis of CLL B cells was assessed utilizing an ex vivo model. CLL is characterized by accumulation of clonal CD5^+CD19^+ lymphocytes resistant to apoptosis. […]

compound	unit_symbol	IC50
O=C1CC[C@H](N2C(=O)c3cccc(NCc4ccc(CN5CC(N6CCOCC6)C5)cc4F)c3C2=O)C(=O)N1 [Compound 1]	nM	0.209
